- MEASURED_TARGET: HLA-B*15:17
- EXPERIMENTAL_PROTOCOL: IEDB peptide-MHC binding, purified MHC/direct/fluorescence; filed as Kd, often an IC50 or EC50 that approximates it; bounds were set here for any values at or beyond the usual limits of such assays
- CONDITION: source organism: Cryptosporidium parvum
ASSAY_METRIC: Kd (nM)
Express it in nM; write the number only.

Q: Entry KSFGRISVL : reported Kd = ?
Ans: 0.8

###

- MEASURED_TARGET: HLA-A*24:03
- EXPERIMENTAL_PROTOCOL: IEDB peptide-MHC binding, purified MHC/direct/fluorescence; filed as Kd, often an IC50 or EC50 that approximates it; bounds were set here for any values at or beyond the usual limits of such assays
- CONDITION: source organism: Mycobacterium tuberculosis str. Haarlem
ASSAY_METRIC: Kd

Q: Consider the sequence RVACRDVEV and give its measured Kd.
Ans: ≥ 20 µM

###

- MEASURED_TARGET: HLA-A*02:01
- EXPERIMENTAL_PROTOCOL: IEDB peptide-MHC binding, purified MHC/competitive/fluorescence; filed as Kd, often an IC50 or EC50 that approximates it; bounds were set here for any values at or beyond the usual limits of such assays
- CONDITION: source organism: Mycobacterium tuberculosis variant bovis BCG str. Pasteur 1173P2
ASSAY_METRIC: Kd

Q: # value lookup — system HLA-A*02:01, readout Kd, item RVEESRARL
Ans: ≥ 20 µM

###

- MEASURED_TARGET: HLA-B*57:01
- EXPERIMENTAL_PROTOCOL: IEDB peptide-MHC binding, purified MHC/competitive/fluorescence; filed as Kd, often an IC50 or EC50 that approximates it; bounds were set here for any values at or beyond the usual limits of such assays
- CONDITION: source organism: Orthohantavirus sinnombreense
pKd: −log10 of the molar value.
ASSAY_METRIC: pKd

Q: For the sequence TEFFMSRKL , what pKd is on record?
Ans: ≤ 4.70

###

- MEASURED_TARGET: HLA-A*26:01
- EXPERIMENTAL_PROTOCOL: IEDB peptide-MHC binding, purified MHC/direct/fluorescence; filed as Kd, often an IC50 or EC50 that approximates it; bounds were set here for any values at or beyond the usual limits of such assays
- CONDITION: source organism: Rickettsia sibirica
pKd: −log10 of the molar value.
ASSAY_METRIC: pKd

Q: Hello, I am looking for reported pKd with HLA-A*26:01 for ASDRISGIL . Could you help?
Ans: ≤ 4.70

###

- MEASURED_TARGET: HLA-A*02:16
- EXPERIMENTAL_PROTOCOL: IEDB peptide-MHC binding, purified MHC/direct/fluorescence; filed as Kd, often an IC50 or EC50 that approximates it; bounds were set here for any values at or beyond the usual limits of such assays
- CONDITION: source organism: Orthohantavirus andesense
Parameter: Kd. Scope: all listed entries.

In [3]: df
Out[3]:
   entry_sequence   result
0       DAVEDFLAF  ≥ 20 µM

Q: Would you kindly share the measured Kd for AVEDFLAFF ?
Ans: ≥ 20 µM

###

- MEASURED_TARGET: HLA-A*26:02
- EXPERIMENTAL_PROTOCOL: IEDB peptide-MHC binding, purified MHC/competitive/fluorescence; filed as Kd, often an IC50 or EC50 that approximates it; bounds were set here for any values at or beyond the usual limits of such assays
- CONDITION: source organism: Human immunodeficiency virus 1
ASSAY_METRIC: Kd (nM)
Supply the numeric figure in nM, leaving out any unit text.

Q: Returns the measured Kd for the input sequence. Input: EELKSLFNTV
Ans: 1080

###

- MEASURED_TARGET: HLA-B*46:01
- EXPERIMENTAL_PROTOCOL: IEDB peptide-MHC binding, purified MHC/competitive/fluorescence; filed as Kd, often an IC50 or EC50 that approximates it; bounds were set here for any values at or beyond the usual limits of such assays
- CONDITION: source organism: Orthohantavirus andesense
Reported Kd values for a set of sequences

   entry_sequence  assay_metric   result
0       DAVEDFLAF            Kd  ≥ 20 µM

Query sequence follows.
Q: Need Kd of AVEDFLAFF , thanks.
Ans: ≥ 20 µM

###

Recorded pKd for the following sequences
- MEASURED_TARGET: HLA-A*31:01
- EXPERIMENTAL_PROTOCOL: IEDB peptide-MHC binding, purified MHC/competitive/radioactivity; filed as Kd, often an IC50 or EC50 that approximates it; bounds were set here for any values at or beyond the usual limits of such assays
- CONDITION: source organism: Vaccinia virus WR
# pKd is unitless: minus log10 of the molar concentration; print number only

# count of solved cases: 10
>>> print(df.to_string())
   entry_sequence  number
0      KTYIDVNEEY    5.73
1      NSTCYVFGLY    5.49
2      KSIENKHQRR    9.22
3      IFMRDWNSKY    5.61
4      LVKESMASLK    7.19
5       DTIVSRSSR    5.85
6      KQLCYCPASK    7.51
7       KMLTFDVFR    8.40
8       ISELSRLRY    5.27
9      LIDTTSRELK    6.83

Q: Quick one: pKd of YIAVANCVR ?
Ans: 7.85

Q: Param item = IAEYIAGLK ; retrieve measured pKd.
Ans: 5.09

Q: // lookup pKd for VIDKAKVMGR
Ans: 6.89

###

- MEASURED_TARGET: HLA-A*69:01
- EXPERIMENTAL_PROTOCOL: IEDB peptide-MHC binding, purified MHC/direct/fluorescence; filed as Kd, often an IC50 or EC50 that approximates it; bounds were set here for any values at or beyond the usual limits of such assays
- CONDITION: source organism: Pseudomonas aeruginosa
ASSAY_METRIC: pKd
// pKd here means minus log10 of the molar concentration (mol/L)

Q: Give the reported pKd for ILGRYLPEF (system: HLA-A*69:01).
Ans: 4.74

###

- MEASURED_TARGET: HLA-A*02:03
- EXPERIMENTAL_PROTOCOL: IEDB peptide-MHC binding, purified MHC/competitive/fluorescence; filed as Kd, often an IC50 or EC50 that approximates it; bounds were set here for any values at or beyond the usual limits of such assays
- CONDITION: source organism: Burkholderia pseudomallei 91
pKd: −log10 of the molar value.
ASSAY_METRIC: pKd

Q: Quick one: pKd of RAYAAMHLW ?
Ans: ≤ 4.70

###

- MEASURED_TARGET: HLA-A*31:01
- EXPERIMENTAL_PROTOCOL: IEDB peptide-MHC binding, purified MHC/competitive/radioactivity; filed as Kd, often an IC50 or EC50 that approximates it; bounds were set here for any values at or beyond the usual limits of such assays
- CONDITION: source organism: Vaccinia virus
ASSAY_METRIC: Kd (nM)
Express your answer in nM, writing the number without its unit.

Q: # input sequence: VTSSGTIYK ; wanted: its Kd
Ans: 0.577

###

- MEASURED_TARGET: HLA-A*01:01
- EXPERIMENTAL_PROTOCOL: IEDB peptide-MHC binding, purified MHC/competitive/radioactivity; filed as Kd, often an IC50 or EC50 that approximates it; bounds were set here for any values at or beyond the usual limits of such assays
- CONDITION: source organism: Dengue virus 1 Brazil/97-11/1997
ASSAY_METRIC: pKd
Units for pKd: none; it is -log10 of a concentration expressed in mol/L.

Q: I have this sequence here, VSSWEEVPYL , and I need its recorded pKd.
Ans: 4.91

###

Each entry below lists one item and its recorded pKd value.
- MEASURED_TARGET: HLA-A*26:01
- EXPERIMENTAL_PROTOCOL: IEDB peptide-MHC binding, purified MHC/direct/fluorescence; filed as Kd, often an IC50 or EC50 that approximates it; bounds were set here for any values at or beyond the usual limits of such assays
- CONDITION: source organism: Giardia lamblia ATCC 50803
pKd: −log10 of the molar value.

>>> df
   entry_sequence  measured_target  assay_metric  result
0       SHSIPNGLL      HLA-A*26:01           pKd  ≤ 4.70

Q: What does the record list as pKd for VLLISDPGL ?
Ans: ≤ 4.70

###

Recorded Kd values for a group of sequences are listed next.
- MEASURED_TARGET: HLA-B*27:05
- EXPERIMENTAL_PROTOCOL: IEDB peptide-MHC binding, purified MHC/direct/fluorescence; filed as Kd, often an IC50 or EC50 that approximates it; bounds were set here for any values at or beyond the usual limits of such assays
- CONDITION: source organism: Coxiella burnetii

Take a look at these entries with their results.
   entry_sequence   result
0       IIGLLKIFR  ≥ 20 µM
1       HEGDIVPLF  ≥ 20 µM

Now consider the entry below.
Q: Would you kindly share the measured Kd for VPPESVEAA ?
Ans: ≥ 20 µM

Reference source: the Immune Epitope Database (IEDB)
